# TEST_SYSTEM: Solute carrier family 12 member 5 (Homo sapiens)
# ASSAY_COMMENT: modulation of human KCC2 ion transport – cell-based, HEK293 KCC2, FluoZin-2 fluorescence, MLSMR, primary screen (AID 1456);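 also: slope of fluorescence scaled to starting intensity during 10 to 20 s after thallium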
# EXPERIMENTAL_SETUP: KCC2 cells, thallium flux FluoZin-2 fluorescence; at 10 µM
Out of some 190,000 compounds screened, about 4,100 (2.2%) were called active. What follows is part of a selection rich in actives, with near analogues and random picks from the rest.
Recorded B-score of Tl+ flux slope (higher = more flux/activation; lower = inhibition), one value per entry.
Form field (numeric): enter value without unit.

Examples from the recorded data:
CC(NC(=O)C(C)(C)C)C(c1cccs1)N1CCN(Cc2ccccc2)CC1 (stereo not drawn); 0.428
C/C(CC(=O)NC(C)c1ccccc1)=N\NC(N)=S (stereo not drawn); -0.13
COc1ccc(NC(=O)C2=NNC(=O)CC2)cc1S(=O)(=O)N1CCCCC1; 1.01
S=c1[nH]nc(NCCc2ccccc2)s1; -1.55
S=c1[nH]nc(Nc2ccccc2)s1; -8.06
Cc1cc(C)c2cc(CN(Cc3cccs3)Cc3nnnn3CC3CCCO3)c(=O)[nH]c2c1 (stereo not drawn); -3.73

The reported value for CCOc1ccc2[nH]c(=O)c(CN(Cc3nnnn3Cc3ccccc3)CC3CCCO3)cc2c1 (stereo not drawn) in terms of B-score of Tl+ flux slope (higher = more flux/activation; lower = inhibition) is 0.154

The reported value for "Cc1csc(NC(=O)CSc2ccc(-c3ccc(F)cc3)nn2)n1" in terms of B-score of Tl+ flux slope (higher = more flux/activation; lower = inhibition) is -4.45

The reported value for O=C(NN1C(=O)C2C(C1=O)C1C=CC2C12CC2)c1ccccc1Cl (stereo not drawn) in terms of B-score of Tl+ flux slope (higher = more flux/activation; lower = inhibition) is 0.716

###

# TEST_SYSTEM: Solute carrier family 12 member 5 (Homo sapiens) (UniProt Q9H2X9)
# Sequence (Q9H2X9 whole entry, looked up): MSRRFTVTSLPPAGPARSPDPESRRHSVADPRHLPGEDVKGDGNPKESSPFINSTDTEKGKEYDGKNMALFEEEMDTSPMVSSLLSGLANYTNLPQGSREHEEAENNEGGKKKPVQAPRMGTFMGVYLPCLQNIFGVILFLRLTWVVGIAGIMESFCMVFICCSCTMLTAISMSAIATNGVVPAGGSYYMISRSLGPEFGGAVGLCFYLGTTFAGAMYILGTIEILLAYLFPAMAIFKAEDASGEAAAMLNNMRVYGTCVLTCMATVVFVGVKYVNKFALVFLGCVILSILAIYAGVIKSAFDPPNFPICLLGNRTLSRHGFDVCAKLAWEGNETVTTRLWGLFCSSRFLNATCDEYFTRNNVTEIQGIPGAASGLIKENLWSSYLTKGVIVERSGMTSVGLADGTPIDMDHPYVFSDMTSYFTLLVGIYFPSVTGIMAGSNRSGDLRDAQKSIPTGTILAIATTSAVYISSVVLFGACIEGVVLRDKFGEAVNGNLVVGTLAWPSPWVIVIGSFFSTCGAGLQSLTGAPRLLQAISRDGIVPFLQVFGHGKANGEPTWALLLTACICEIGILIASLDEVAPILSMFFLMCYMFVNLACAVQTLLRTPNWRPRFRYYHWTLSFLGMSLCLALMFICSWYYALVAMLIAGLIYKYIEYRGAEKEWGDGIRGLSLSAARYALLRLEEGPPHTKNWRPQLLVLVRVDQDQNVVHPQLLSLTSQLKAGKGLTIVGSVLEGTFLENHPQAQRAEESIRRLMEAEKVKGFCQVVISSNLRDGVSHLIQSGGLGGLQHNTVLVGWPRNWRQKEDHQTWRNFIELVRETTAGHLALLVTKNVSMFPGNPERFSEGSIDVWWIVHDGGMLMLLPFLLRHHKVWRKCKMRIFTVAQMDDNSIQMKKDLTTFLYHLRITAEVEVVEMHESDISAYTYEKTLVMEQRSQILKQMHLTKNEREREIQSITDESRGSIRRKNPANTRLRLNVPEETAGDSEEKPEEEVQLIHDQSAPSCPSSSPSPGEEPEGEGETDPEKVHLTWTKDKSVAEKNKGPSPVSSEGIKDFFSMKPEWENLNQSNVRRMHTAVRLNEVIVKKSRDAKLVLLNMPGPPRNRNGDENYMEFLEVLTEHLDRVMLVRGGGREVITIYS
# ASSAY_COMMENT: modulation of human KCC2 ion transport – cell-based, HEK293 KCC2, FluoZin-2 fluorescence, MLSMR, primary screen (AID 1456)
# EXPERIMENTAL_SETUP: KCC2 cells, thallium flux FluoZin-2 fluorescence; at 10 µM
Hit rate of the full screen: of about 190,000 compounds, about 4,100 (2.2%) were called active. This excerpt belongs to a sample that is enriched for actives.
ASSAY_METRIC: B-score of Tl+ flux slope (higher = more flux/activation; lower = inhibition)
Form field (numeric): enter value without unit.

Examples from the recorded data:
CCCC(=O)Nc1nnc(-c2ccccc2)o1; 1.22
CC(=O)Nc1nc2ccccc2n1Cc1ccc(C)cc1; 0.76
O=C(COC(=O)c1ccc(Oc2ccccc2)cc1)Nc1nnc(-c2ccccc2)o1; 42.1
CCCCn1c(SCC(=O)NCC2CCCO2)nc2ccc(N3CCOCC3)cc2c1=O (stereo unspecified); 7.18
O=C(Nc1cccc(S(=O)(=O)NC2=NCCC2)c1)C1CCCCC1; 0.665

The reported value for "Cc1ccc(S(=O)(=O)/N=C(/NC(=S)Nc2c(C)n(C)n(-c3ccccc3)c2=O)c2ccccc2)cc1" in terms of B-score of Tl+ flux slope (higher = more flux/activation; lower = inhibition) is -0.219

The reported value for O=C1/C(=C/c2cccs2)SC(=S)N1C1CCS(=O)(=O)C1 (stereo unspecified) in terms of B-score of Tl+ flux slope (higher = more flux/activation; lower = inhibition) is -0.225

###

# TEST_SYSTEM: Solute carrier family 12 member 5 (Homo sapiens) (UniProt Q9H2X9)
# ASSAY_COMMENT: modulation of human KCC2 ion transport – cell-based, HEK293 KCC2, FluoZin-2 fluorescence, MLSMR, primary screen (AID 1456)
# EXPERIMENTAL_SETUP: KCC2 cells, thallium flux FluoZin-2 fluorescence; at 10 µM
Hit rate of the full screen: of about 190,000 compounds, about 4,100 (2.2%) were called active. For the sample, actives were picked, then their nearest neighbours and some compounds at random.
ASSAY_METRIC: B-score of Tl+ flux slope (higher = more flux/activation; lower = inhibition)
Form field (numeric): enter value without unit.

O=C(CNC(=O)c1ccc(-c2ccccc2)cc1)OCc1ccc(Cl)cc1; 0.889
NS(=O)(=O)c1ccc(NS(=O)(=O)/C=C/c2ccccc2)cc1; 0.851
COc1ccc(C(=O)NN(C)c2nc(-c3ccccc3)cc(C)c2S(C)(=O)=O)cc1; -2.92
COc1ccc(C(=O)Nc2cccc(S(C)(=O)=O)c2)cc1; -0.0335

Let us examine a further case.
Reported B-score of Tl+ flux slope (higher = more flux/activation; lower = inhibition) (Solute carrier family 12 member 5 (Homo sapiens) (UniProt Q9H2X9)) for entry "COc1ccc(OCC(=O)NNC(=O)c2ccc(-c3ccccc3)cc2)cc1" is -0.294

###

Recorded B-score of Tl+ flux slope (higher = more flux/activation; lower = inhibition), one value per entry.
# TEST_SYSTEM: Solute carrier family 12 member 5 (Homo sapiens)
# ASSAY_COMMENT: modulation of human KCC2 ion transport – cell-based, HEK293 KCC2, FluoZin-2 fluorescence, MLSMR, primary screen (AID 1456)
# EXPERIMENTAL_SETUP: KCC2 cells, thallium flux FluoZin-2 fluorescence; at 10 µM
In all, about 190,000 compounds went through this assay and about 4,100 (2.2%) were called active. Shown is part of a subset that was picked to be rich in actives.
Form field (numeric): enter value without unit.

The reported value for "Cc1cccc(-n2c(=O)c3c(C)c(C)sc3n(CC(N)=O)c2=O)c1" in terms of B-score of Tl+ flux slope (higher = more flux/activation; lower = inhibition) is 0.771

The reported value for "CCc1c(C)nc2c(-c3ccccc3)c(C)nn2c1Nc1ccc(NC(C)=O)cc1" in terms of B-score of Tl+ flux slope (higher = more flux/activation; lower = inhibition) is 0.635

The reported value for "O=C(CCn1nnc2ccccc2c1=O)N[C@@H](Cc1c[nH]c2ccccc12)C(=O)O" in terms of B-score of Tl+ flux slope (higher = more flux/activation; lower = inhibition) is 0.807

The reported value for "COc1ccccc1NC(=O)c1cc(Cl)nc2ccccc12" in terms of B-score of Tl+ flux slope (higher = more flux/activation; lower = inhibition) is 0.201

The reported value for "O=C(CCn1c(=S)[nH]c2ccccc2c1=O)NCCCN1CCCC1=O" in terms of B-score of Tl+ flux slope (higher = more flux/activation; lower = inhibition) is -0.0162

###

# TEST_SYSTEM: Solute carrier family 12 member 5 (Homo sapiens)
# ASSAY_COMMENT: modulation of human KCC2 ion transport – cell-based, HEK293 KCC2, FluoZin-2 fluorescence, MLSMR, primary screen (AID 1456);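 also: slope of fluorescence scaled to starting intensity during 10 to 20 s after thallium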
# EXPERIMENTAL_SETUP: KCC2 cells, thallium flux FluoZin-2 fluorescence; at 10 µM
In all, about 190,000 compounds went through this assay and about 4,100 (2.2%) were called active. For the sample, actives were picked, then their nearest neighbours and some compounds at random.
Recorded B-score of Tl+ flux slope (higher = more flux/activation; lower = inhibition), one value per entry.
Form field (numeric): enter value without unit.

Examples from the recorded data:
Cc1cccc(NC(=S)NC(=O)c2ccc(Br)o2)c1; 143
Cc1cccc(NC(=S)Nc2ccc(Br)cc2)c1; 0.311
COCCCNC(=S)NC(=O)c1ccccc1; 1.23
Cc1nnc(Nc2ccccc2F)s1; -0.881
CCOC(=O)C1=C(NC(=S)NC(=O)c2ccccc2)c2ccccc2CC1(C)C; 3.94
O=C(COC(=O)c1ccccc1C(=O)c1ccccc1)c1ccco1; -0.42

Let us examine a further case.
The reported value for "Cc1cccc(NC(=O)/C(=C\c2ccco2)NC(=O)c2ccccc2)c1" in terms of B-score of Tl+ flux slope (higher = more flux/activation; lower = inhibition) is 0.0694

###

# TEST_SYSTEM: Solute carrier family 12 member 5 (Homo sapiens)
# ASSAY_COMMENT: modulation of human KCC2 ion transport – cell-based, HEK293 KCC2, FluoZin-2 fluorescence, MLSMR, primary screen (AID 1456);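 also: slope of fluorescence scaled to starting intensity during 10 to 20 s after thallium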
# EXPERIMENTAL_SETUP: KCC2 cells, thallium flux FluoZin-2 fluorescence; at 10 µM
The whole screen tested about 190,000 compounds, of which about 4,100 (2.2%) were called active. The sample holds actives, similar compounds and a random draw of the others, so the mix is not that of the screen.
Recorded B-score of Tl+ flux slope (higher = more flux/activation; lower = inhibition), one value per entry.
Form field (numeric): enter value without unit.

The reported value for "COC(=O)c1ccc(S(=O)(=O)NCc2ccccc2)n1C" in terms of B-score of Tl+ flux slope (higher = more flux/activation; lower = inhibition) is -0.343

###

# TEST_SYSTEM: Solute carrier family 12 member 5 (Homo sapiens)
# ASSAY_COMMENT: modulation of human KCC2 ion transport – cell-based, HEK293 KCC2, FluoZin-2 fluorescence, MLSMR, primary screen (AID 1456);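 also: slope of fluorescence scaled to starting intensity during 10 to 20 s after thallium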
# EXPERIMENTAL_SETUP: KCC2 cells, thallium flux FluoZin-2 fluorescence; at 10 µM
Screen size: about 190,000 compounds; about 4,100 (2.2%) were called active.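 Rule for the calls: active = thallium flux slope and its plate-corrected score both differing from the plate sample mean at a set confidence after two filtering rounds, in either direction; inactive = the rest.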 The sample as a whole holds a higher share of actives than the screen did.
Allowed answers: 1 for active, 0 for inactive

CC(CNS(=O)(=O)c1ccc(Br)cc1)CN(C)C (configuration not stated); 0
Cc1ccc(N2C(=O)CN=C2Nc2nc(C)cc(C)n2)cc1; 0
COc1ccc(CC2(CO)CCN(Cc3cnn(C)c3)CC2)cc1; 0

Lookup: Answer briefly: the call reported for "COc1cc(SC#N)ccc1N=Cc1c(C)[nH]n(-c2ccc(C)cc2)c1=O" in this assay.
Found: 0

Lookup: Answer briefly: the call reported for "CC(C)n1cnc2c(Nc3cccc(Cl)c3)nc(N(CCO)CCCO)nc21" in this assay.
Found: 1

Lookup: Answer briefly: the call reported for "COc1cccc(CNC(=O)c2n[nH]c3ccccc23)c1" in this assay.
Found: 0

Lookup: Answer briefly: the call reported for "Cc1ccc(/C=N/NC(=O)CNC(=O)COc2ccccc2)o1" in this assay.
Found: 0
